System: Staphylococcus aureus
Assay: Antibacterial activity against methicillin resistant Staphylococcus aureus USA300
Assay type: functional
MEASUREMENT_KIND: MIC (µg/mL)
Note: unit µg/mL is implicit; provide only the numeric part.

C=C(C)[C@H](CC=C(C)C)C[C@]12C[C@H](CC=C(C)C)C(C)(C)[C@](CC=C(C)C)(C(=O)C(C(=O)c3ccc(O)c(O)c3)=C1O)C2=O
7
CC(C)=CC[C@@H]1C[C@@]2(CC=C(C)C)C(=O)[C@](CC=C(C)C)(C(=O)C(C(=O)C(C)C)=C2O)C1(C)C
2
CC(C)=CC[C@@]12C(=O)C(C(=O)c3ccccc3)=C(O)[C@@](Cc3ccccc3)(C[C@@H](Cc3ccccc3)C1(C)C)C2=O
4
CC(C)=CC[C@@H]1C[C@]2(CC=C(C)C)C(=O)C(C(=O)c3ccccc3)=C3O[C@H](C(C)(C)O)C[C@]3(C2=O)C1(C)C
4

Sure, the documented MIC for C=CC[C@@]12C[C@@H](CC=C(C)C)C(C)(C)[C@@](CC=C)(C(=O)C(C(C)=O)=C1O)C2=O is 2

Sure, the documented MIC for CC(C)=CCC(=O)C1=C(O)[C@@]2(Cc3ccccc3)C[C@@H](CC=C(C)C)C(C)(C)[C@@](CC=C(C)C)(C1=O)C2=O is 2

Sure, the documented MIC for CC(C)=CC[C@@H]1C[C@@]2(CC=C(C)C)C(=O)[C@](CC=C(C)C)(C(=O)C(C(=O)c3ccccc3)=C2O)C1(C)C is 1

Sure, the documented MIC for C=CC[C@@]12C(=O)C(C(C)=O)=C(O)[C@@](Cc3ccccc3)(C[C@@H](CC=C(C)C)C1(C)C)C2=O is 1

Sure, the documented MIC for C=CC[C@@]12C(=O)C(C(=O)C(C)C)=C(O)[C@@](Cc3ccccc3)(C[C@@H](CC=C(C)C)C1(C)C)C2=O is 1
